# Lookup of reported inhibition at 10 µM keyed by entry
# Tested on: SW480 colon cancer cells
# EXPERIMENT NOTES: Cell viability assay (CellTiter-Blue)
# Assay type: cell-based
# DETAILS: Homo sapiens, 96 h, at 10 μM, given where EC50 >10 μM, four days, read-out: percent inhibition at 10 μM
The figure you give is taken to be in %; do not add the unit.

>>> result_number("Nc1cncc(-c2cc3c(-c4cc5c(-c6ccoc6)ccnc5[nH]4)n[nH]c3cn2)c1")
5.5
>>> result_number("c1cncc(-c2cc3c(-c4cc5cccnc5[nH]4)n[nH]c3cn2)c1")
19.3
>>> result_number("CN1CCN(c2ccnc3[nH]c(-c4n[nH]c5cnc(-c6cncc(N(C)C)c6)cc45)cc23)CC1")
9.2
>>> result_number("c1cncc(-c2ccnc3[nH]c(-c4n[nH]c5cnc(-c6cncnc6)cc45)cc23)c1")
17.3
>>> result_number("CCC(=O)Nc1cncc(-c2cc3c(-c4cc5c(-c6cccc(F)c6)ccnc5[nH]4)n[nH]c3cn2)c1")
36.3

Item c1ccc(-c2cc3c(-c4cc5c(-c6ccncc6)ccnc5[nH]4)n[nH]c3cn2)nc1 has what recorded inhibition at 10 µM?
17.5

Item CC(C)Nc1cncc(-c2cc3c(-c4cc5c(-c6cccnc6)ccnc5[nH]4)n[nH]c3cn2)c1 has what recorded inhibition at 10 µM?
20.5

* * *

# Lookup of reported inhibition at 10 µM keyed by entry
# Tested on: primary human fibroblasts derived from IPF patients (LL29 cells) treated with TGF-β1
# EXPERIMENT NOTES: Inhibition of fibrotic process, αSMA staining in TGF-β1 treated LL29 fibroblasts
# Type: cell-based
# DETAILS: Fibroblast, at 10 μM, given where EC50 >10 μM, αSMA, LL29 cells, TGF-β1, read-out: percent inhibition at 10 μM
# Description: Representative compounds were screened using primary human fibroblasts (derived from IPF patients) treated with TGF-β1 to determine their ability to inhibit the fibrotic process. […]
The figure you give is taken to be in %; do not add the unit.

Past entries and their recorded results:
>>> result_number("CC(C)(C)C(=O)Nc1cncc(-c2cc3c(-c4cc5c(-c6cccnc6)ccnc5[nH]4)n[nH]c3cn2)c1 [Compound 92]")
2.4
>>> result_number("CN1CCN(c2ccnc3[nH]c(-c4n[nH]c5cnc(-c6cn[nH]c6)cc45)cc23)CC1 [Compound 635]")
44.9
>>> result_number("CCCCC(=O)Nc1cncc(-c2cc3c(-c4cc5c(-c6cccnc6)ccnc5[nH]4)n[nH]c3cn2)c1 [Compound 103]")
4.8

In the following, a different compound is considered.
Item CCCC(=O)Nc1cncc(-c2cc3c(-c4cc5c(-c6cc(F)cc(NCCN(C)C)c6)ccnc5[nH]4)n[nH]c3cn2)c1 [Compound 465] has what recorded inhibition at 10 µM?
43

* * *

# Test system: SW480 colon cancer cells
# EXPERIMENT NOTES: Cell viability assay (CellTiter-Blue)
# Assay type: cell-based
# DETAILS: Homo sapiens, 96 h, at 10 μM, given where EC50 >10 μM, four days, read-out: percent inhibition at 10 μM
Note that class boundaries on inhibition at 10 µM are low class = under 10%, middle class = from 10% up to 20%, high class = 20% and over

These solved cases illustrate the format of a correct answer.
>>> category_label("CCCCC(=O)Nc1cncc(-c2cc3c(-c4cc5c(-c6cccnc6)ccnc5[nH]4)n[nH]c3cn2)c1")
"low class"
>>> category_label("c1cncc(-c2ccnc3[nH]c(-c4n[nH]c5cnc(-c6cncc(CN7CCCC7)c6)cc45)cc23)c1")
"middle class"
>>> category_label("c1cc(N2CCCCC2)c2cc(-c3n[nH]c4cnc(-c5cncc(CN6CCCC6)c5)cc34)[nH]c2n1")
"high class"
>>> category_label("CC(C)CC(=O)Nc1cncc(-c2cc3c(-c4cc5c(-c6ccncc6)ccnc5[nH]4)n[nH]c3cn2)c1")
"low class"
>>> category_label("O=C(Cc1ccccc1)Nc1cncc(-c2cc3c(-c4cc5c(-c6ccncc6)ccnc5[nH]4)n[nH]c3cn2)c1")
"low class"

Hi there! Could you help me figure out the category for O=C(Nc1cncc(-c2cc3c(-c4cc5cccnc5[nH]4)n[nH]c3cn2)c1)C1CCCCC1 please?
low class

Hi there! Could you help me figure out the category for CC(C)(C)C(=O)Nc1cncc(-c2cc3c(-c4cc5c(-c6cccnc6)ccnc5[nH]4)n[nH]c3cn2)c1 please?
middle class

Hi there! Could you help me figure out the category for Fc1cccc(-c2ccnc3[nH]c(-c4n[nH]c5cnc(-c6cncc(OCc7ccccc7)c6)cc45)cc23)c1 please?
high class
